System: Setaria faberi (SETFA)
Experiment: Post-emergence Test (Table B2)
Format: in vivo
Settings: 1000 g/ha, evaluated after 13 days
Task for the reader: assign each of the following compounds its reported percentage damage caused to the plant, SETFA.

Ask: Report percentage damage caused to the plant, SETFA, nothing else, for this compound: C#CC(C)OC(=O)c1ccc(F)c(-c2c(C)n(CC)c(-c3ccc(Cl)c(Cl)c3)c(C(=O)O)c2=O)c1 (stereo not shown)
Result: 5 (5=81-100%)

Ask: Identify measured percentage damage caused to the plant, SETFA corresponding to CCn1c(C)c(-c2cc(C(=O)OC(C)CF)ccc2F)c(=O)c(C(=O)O)c1-c1ccc(Cl)c(Cl)c1 (stereo not shown)
Result: 3 (3=41-60%)

Ask: For the compound CCn1c(C)c(-c2cc(C(=O)OC(C)C3CCCC3)ccc2F)c(=O)c(C(=O)O)c1-c1ccc(Cl)c(Cl)c1 (stereo not shown) , report percentage damage caused to the plant, SETFA.
Result: 1 (1=0-20%)

Ask: Give me measured percentage damage caused to the plant, SETFA, please, for this compound: C#CCC(C)OC(=O)c1ccc(F)c(-c2c(C)n(CC)c(-c3ccc(Cl)c(Cl)c3)c(C(=O)O)c2=O)c1 (stereo not shown)
Result: 2 (2=21-40%)

Ask: # return recorded percentage damage caused to the plant, SETFA for entry CCn1c(C)c(-c2cc(C(=O)OC(C)COC)c(Cl)cc2F)c(=O)c(C(=O)O)c1-c1ccc(Cl)c(Cl)c1 (stereo not shown)
Result: 5 (5=81-100%)

Ask: Return the recorded percentage damage caused to the plant, SETFA value; entry: CCn1c(C)c(-c2cc(C(=O)OC(C)C(C)=O)ccc2F)c(=O)c(C(=O)O)c1-c1ccc(Cl)c(Cl)c1 (stereo not shown)
Result: 4 (4=61-80%)

Ask: Supply recorded percentage damage caused to the plant, SETFA for CCOCC(C)OC(=O)c1ccc(F)c(-c2c(C)n(CC)c(-c3ccc(Cl)c(Cl)c3)c(C(=O)O)c2=O)c1 (stereo not shown) here.
Result: 3 (3=41-60%)

---

So I've got a bunch of molecules here, and I need their percentage damage caused to the plant, IPOHE values.
System: Ipomoea hederacea (IPOHE)
Experiment: Pre-emergence Test (Table B1)
Assay type: in vivo
Design: key: 5=81-100%; 4=61-80%; 3=41-60%; 2=21-40%; 1=0-20%; 0=inactive
Conditions: 1000 g/ha, evaluated after 13 days

Ask: Fill in percentage damage caused to the plant, IPOHE for record CCn1c(C)c(-c2cc(C(=O)OC(C)C(C)=O)ccc2F)c(=O)c(C(=O)O)c1-c1ccc(Cl)c(Cl)c1 (stereo not shown)
Result: 0

Ask: Quote percentage damage caused to the plant, IPOHE reported for C#CC(C)OC(=O)c1ccc(F)c(-c2c(C)n(CC)c(-c3ccc(Cl)c(Cl)c3)c(C(=O)O)c2=O)c1 (stereo not shown) please.
Result: 1 (1=0-20%)

Ask: Provide only the value of recorded percentage damage caused to the plant, IPOHE for C#CCC(C)OC(=O)c1ccc(F)c(-c2c(C)n(CC)c(-c3ccc(Cl)c(Cl)c3)c(C(=O)O)c2=O)c1 (stereo not shown)
Result: 2 (2=21-40%)

Ask: Consider the molecule CCn1c(C)c(-c2cc(C(=O)OC(C)COC)c(Cl)cc2F)c(=O)c(C(=O)O)c1-c1ccc(Cl)c(Cl)c1 (stereo not shown) . State its measured percentage damage caused to the plant, IPOHE.
Result: 3 (3=41-60%)
